tested on: Staphylococcus epidermidis ATCC 12228; assay: MIC, two-fold dilution method, Staphylococcus epidermidis ATCC 12228; assay type: cell-based; details: Muller Hinton Broth, 10^6 CFU per ml, 37° C., 18 to 20 hours
observable: Antibacterial Activity (MIC) (µg/mL)

The cases that follow already have their Antibacterial Activity (MIC) on record.
| molecule | readout_number |
| --- | --- |
| CC[n+]1ccc(SCC2=C(C(=O)[O-])N3C(=O)C(NC(=O)/C(=N\OC(C)(C)C(=O)O)c4csc(N)n4)[C@H]3SC2)c2cc(F)c(-n3ccnc3)cc21 (some centres unmarked) [Compound I-65] | 1.56 |
| CO/N=C(\C(=O)NC1C(=O)N2C(C(=O)[O-])=C(CSc3cc[n+](C)c4cc(N5CCNCC5C)c(F)cc34)CSC12)c1csc(N)n1 (centres unmarked) [Compound I-4] | 0.2 |
| C#CCO/N=C(\C(=O)NC1C(=O)N2C(C(=O)[O-])=C(CSc3cc[n+](C)c4cc(N5CCNCC5C)c(F)cc34)CS[C@H]12)c1csc(N)n1 (some centres unmarked) [Compound I-40] | 0.1 |
| CC1CNCCN1c1cc2c(cc1F)c(SCC1=C(C(=O)[O-])N3C(=O)C(NC(=O)/C(=N\OC(C)(C)C(=O)O)c4csc(N)n4)[C@H]3SC1)cc[n+]2C (some centres unmarked) [Compound I-56] | 0.78 |
| C=CC[n+]1ccc(SCC2=C(C(=O)[O-])N3C(=O)C(NC(=O)/C(=N\OC(C)(C)C(=O)O)c4csc(N)n4)[C@H]3SC2)c2cc(F)c(N3CCNCC3C)cc21 (some centres unmarked) [Compound I-64] | 1.56 |
| CO/N=C(\C(=O)NC1C(=O)N2C(C(=O)[O-])=C(CSc3cc[n+](C)c4cc(-n5cnc(C)c5)c(F)cc34)CSC12)c1csc(N)n1 (centres unmarked) [Compound I-18] | 0.2 |

A. CC[n+]1ccc(SCC2=C(C(=O)[O-])N3C(=O)C(NC(=O)/C(=N\OC)c4csc(N)n4)[C@H]3SC2)c2cc(F)c(N3CCNCC3C)cc21 (some centres unmarked) [Compound I-12]
B. C=CCO/N=C(\C(=O)NC1C(=O)N2C(C(=O)[O-])=C(CSc3cc[n+](C)c4cc(N5CCNCC5C)c(F)cc34)CS[C@H]12)c1csc(N)n1 (some centres unmarked) [Compound I-24]
Lab notebook, comparison: A versus B , higher Antibacterial Activity (MIC) goes to which? Let me know the label of the one you choose.
A
